All figures here come from patent US20190233493A1.

- MEASUREMENT_TARGET: T1, RXFP1 receptor (UniProt Q9HBX9 1-757, limits assumed)
- T1 sequence (looked up): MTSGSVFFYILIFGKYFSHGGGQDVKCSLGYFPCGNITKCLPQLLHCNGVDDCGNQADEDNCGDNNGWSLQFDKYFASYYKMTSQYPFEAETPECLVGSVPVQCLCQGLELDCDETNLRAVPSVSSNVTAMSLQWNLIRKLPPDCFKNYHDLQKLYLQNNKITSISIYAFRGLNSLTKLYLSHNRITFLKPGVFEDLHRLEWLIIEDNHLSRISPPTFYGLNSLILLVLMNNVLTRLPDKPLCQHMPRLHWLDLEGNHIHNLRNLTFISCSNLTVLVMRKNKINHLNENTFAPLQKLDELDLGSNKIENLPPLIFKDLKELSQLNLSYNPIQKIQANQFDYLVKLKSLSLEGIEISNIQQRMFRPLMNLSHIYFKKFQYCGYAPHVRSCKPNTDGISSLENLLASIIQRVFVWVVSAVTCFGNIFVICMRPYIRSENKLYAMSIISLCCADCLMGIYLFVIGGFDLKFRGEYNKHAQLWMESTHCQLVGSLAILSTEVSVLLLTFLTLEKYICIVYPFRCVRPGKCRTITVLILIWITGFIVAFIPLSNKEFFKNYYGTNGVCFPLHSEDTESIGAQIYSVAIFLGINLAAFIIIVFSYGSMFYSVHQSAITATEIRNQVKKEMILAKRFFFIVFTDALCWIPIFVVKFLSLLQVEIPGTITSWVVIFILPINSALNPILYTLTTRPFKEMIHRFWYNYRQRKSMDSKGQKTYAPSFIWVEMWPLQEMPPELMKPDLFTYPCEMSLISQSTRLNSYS
- PROTOCOL: cell-based or functional assay
*1 amine or outer side, *2 acyl side, *3 side chain or, on linkers, in order; H or OH if unused. Primed or numbered codes have the meaning given here. Side-chain parts run from the residue outwards. [ ]: non-standard residue; d: D form. The star is where a group is joined. TTDS″ = 4-[3-[2-[2-(3-aminopropoxy)ethoxy]ethoxy]propylamino]-4-oxo-butanoyl; PEG12 = NCCOCCOCCOCCOCCOCCOCCOCCOCCOCCOCCOCCOCCC(=O)O; Arg(Me2s) = CN=C(NC)NCCC[C@H](N)C(=O)O; γGlu = O=C(O)[C@H](CCC(=O)[*:2])N[*:1]; 1Nal = N[C@@H](Cc1cccc2ccccc12)C(=O)O; Pentadecanoyl = CCCCCCCCCCCCCCC(=O)*; Stearoyl = CCCCCCCCCCCCCCCCCC(=O)*; Palmitoyl = CCCCCCCCCCCCCCCC(=O)*; αMeK = C[C@](N)(CCCCN)C(=O)O; Nle = CCCC[C@H](N)C(=O)O; PEG2′ = PEG2 spacer unit; PEG2″ = not defined here; Aib = CC(C)(N)C(=O)O
MEASUREMENT_TYPE: EMax, OVCAR 5 cells (cAMP) (%)
# value in %; strip the unit string

Bench note: what EMax, OVCAR 5 cells (cAMP) did Ac-LEGREKVRAK(Ac)I[Aib][Aib]EG[Nle]STFS[αMeK]RKK(Ac)K([PEG2′-PEG2′-PEG2′-PEG2′-γGlu-γGlu-γGlu-γGlu-Palmitoyl])-NH2 [peptide of SEQ ID NO: 140] show?
88

What value of measured EMax, OVCAR 5 cells (cAMP) is listed for Ac-LEGREKVRAK(Ac)I[Aib][Aib]EGQSTWS[Aib]RKK(Ac)K([PEG2′-PEG2′-PEG2′-PEG2′-γGlu-γGlu-γGlu-γGlu-Stearoyl])-NH2 [peptide of SEQ ID NO: 180] ?
84

Requested field: EMax, OVCAR 5 cells (cAMP). Item: Ac-LEGREKVRAK(Ac)I[Aib][Aib]EG[Nle]STWXXRKK(Ac)[PEG12]K([γGlu-γGlu-γGlu-γGlu-Stearoyl])-NH2 (not fully specified (some residues); printed as Ac-L-E-G-R-E-K-V-R-A-K(Ac)-I-Aib-Aib-E-G-Nle-S-T-W-Mse-Mly-R-K-K(Ac)-PEG12-K(gE-gE-gE-gE-Stea)-NH2) [peptide of SEQ ID NO: 40]
90

# query: EMax, OVCAR 5 cells (cAMP) of entry Ac-LEGREKVRAK(Ac)I[Aib][Aib]EG[Nle]STWS[Aib][Arg(Me2s)]KK(Ac)K-NH2 (not fully specified (residue 25); printed as Ac-L-E-G-R-E-K-V-R-A-K(Ac)-I-Aib-Aib-E-G-Nle-S-T-W-S-Aib-Rds-K-K(Ac)-K(PEG2-PEG2-PEG2-gE-gE-gE-Stea)-NH2) [peptide of SEQ ID NO: 148]
94

Need EMax, OVCAR 5 cells (cAMP) of Ac-LEGREKVRAK(Ac)I[Aib][Aib]EG[Nle]STWS[Aib]RKK(Ac)[PEG2′][PEG2′][PEG2′][γGlu][γGlu]K([γGlu-Palmitoyl])-NH2 [peptide of SEQ ID NO: 117] , thanks.
86

Given the entry Ac-LEGREKVRAK(Ac)I[Aib][Aib]EG[Nle]ST[1Nal]S[Aib]RKK([PEG2″-PEG2″-PEG2″-γGlu-γGlu-γGlu-Stearoyl])-NH2 [peptide of SEQ ID NO: 79] , report its measured EMax, OVCAR 5 cells (cAMP).
75

EMax, OVCAR 5 cells (cAMP) lookup needed for Ac-LEGREKVRAK(Ac)I[Aib][Aib]EG[Nle]STWS[Aib]RKK([PEG2′-PEG2′-γGlu-γGlu-γGlu-Palmitoyl])-NH2 [peptide of SEQ ID NO: 59] , thanks.
85

I would be grateful if you could share the reported EMax, OVCAR 5 cells (cAMP) for Ac-LEGREKVRAQI[Aib][Aib]EG[Nle]STWS[Aib]RKKK([γGlu-γGlu-PEG2″-PEG2″-γGlu-Stearoyl])-NH2 [peptide of SEQ ID NO: 105] .
88

Field request: EMax, OVCAR 5 cells (cAMP) | item: Ac-LEGREKVRAK(Ac)I[Aib][Aib]EG[Nle]STFS[αMeK]RAK(Ac)K([PEG2′-PEG2′-PEG2′-PEG2′-γGlu-γGlu-γGlu-γGlu-Palmitoyl])-NH2 [peptide of SEQ ID NO: 154]
92

Endpoint output: EMax, OVCAR 5 cells (cAMP) of Ac-LEGREKVRAK(Ac)I[Aib][Aib]EGQSTFS[αMeK]RAK(Ac)K([TTDS″-TTDS″-TTDS″-γGlu-γGlu-γGlu-Pentadecanoyl])-NH2 [peptide of SEQ ID NO: 189] . Value?
100

Entry under review: Ac-LEGREKVRAK(Ac)I[Aib][Aib]EG[Nle]STWS[Aib]RKK(Ac)K([PEG2′-PEG2′-γGlu-γGlu-PEG2′-γGlu-Palmitoyl])-NH2 [peptide of SEQ ID NO: 165] . Reported EMax, OVCAR 5 cells (cAMP)?
105

I have this binder here, Ac-LEGREKVRAK(Ac)I[Aib][Aib]EG[Nle]STWS[Aib]RKK([PEG2′-PEG2′-PEG2′-γGlu-γGlu-γGlu-Stearoyl])-NH2 [peptide of SEQ ID NO: 83] , and I need its recorded EMax, OVCAR 5 cells (cAMP).
92

Which value of EMax, OVCAR 5 cells (cAMP) has been reported for Ac-LEGREKVRAQI[Aib][Aib]EG[Nle]STWT[Aib]RKKK([PEG2″-PEG2″-PEG2″-γGlu-γGlu-γGlu-Stearoyl])-NH2 [peptide of SEQ ID NO: 76] in the records?
89

Field request: EMax, OVCAR 5 cells (cAMP) | item: Ac-LEGREKVRAK(Ac)I[Aib][Aib]EG[Nle]STWS[Aib]RKK(Ac)K([PEG2′-PEG2′-PEG2′-γGlu-γGlu-γGlu-Palmitoyl])-NH2 [peptide of SEQ ID NO: 63]
80

Need EMax, OVCAR 5 cells (cAMP) of Ac-LEGREKVRAK(Ac)I[Aib][Aib]EGQSTFS[αMeK]RAK(Ac)[PEG2′][PEG2′][PEG2′][PEG2′]K([γGlu-γGlu-γGlu-γGlu-Palmitoyl])-NH2 [peptide of SEQ ID NO: 170] , thanks.
87
